# experiment description: Clearance in rat at 1 mg/kg, iv
# Assay type: ADME, organism-based
# Design: dose 1 mg/kg, route intravenous
# test parameters: in vivo
measurement type: clearance (mL/min/kg)
Give the value in mL/min/kg but do not write mL/min/kg after it.

CO/N=C(\C)c1ccc2c(c1)c1c3c(c4c(c1n2CC(C)C)CCc1nn(C)cc1-4)C(=O)NC3 : 6.5

Now consider a different molecule.
[in] Can you share its clearance? I mean this molecule: `CCO/N=C(\C)c1ccc2c(c1)c1c3c(c4c(c1n2C(C)C)CCc1nn(C)cc1-4)C(=O)NC3`
[out] 7.4

----------
# tested on: Proto-oncogene tyrosine-protein kinase Src (Homo sapiens)
# Sequence (P12931 2-536 limits assumed): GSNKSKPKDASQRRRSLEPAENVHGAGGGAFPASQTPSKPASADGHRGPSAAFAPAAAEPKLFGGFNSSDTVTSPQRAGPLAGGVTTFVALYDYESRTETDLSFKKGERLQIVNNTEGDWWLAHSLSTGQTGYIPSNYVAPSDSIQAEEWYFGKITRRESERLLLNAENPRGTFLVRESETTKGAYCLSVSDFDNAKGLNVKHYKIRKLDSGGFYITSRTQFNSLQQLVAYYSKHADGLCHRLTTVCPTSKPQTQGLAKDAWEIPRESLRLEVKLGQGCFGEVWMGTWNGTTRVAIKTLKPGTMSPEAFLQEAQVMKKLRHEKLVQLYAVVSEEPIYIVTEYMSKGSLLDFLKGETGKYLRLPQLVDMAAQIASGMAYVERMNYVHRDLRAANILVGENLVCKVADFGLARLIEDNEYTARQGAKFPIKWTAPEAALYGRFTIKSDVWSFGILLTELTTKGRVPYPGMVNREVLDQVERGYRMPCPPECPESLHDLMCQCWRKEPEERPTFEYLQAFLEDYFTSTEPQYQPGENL
measurement type: pIC50
pIC50 field: float, defined as -log10 of concentration (mol/L).

[in] API: value(readout= pIC50, system= Proto-oncogene tyrosine-protein kinase Src (Homo sapiens), query= `CO/N=C(\C)c1ccc2c(c1)c1c3c(c4c(c1n2CC(C)C)CCc1nn(C)cc1-4)C(=O)NC3` )
[out] 7.37

Origin of the recorded values: ChEMBL document CHEMBL1141537
